system: HOP-62 NSCLC; assay: NCI tumour cell line growth inhibition, 48 h; in the data active = GI50 below about 0.43 µM; inactive = the rest
Hello, when you answer, please use one of the following outcomes: active, inactive

COc1ccc(-c2ccc(OC)c(OC)c2OC)cc1: inactive
CCCCNC(c1ccc(Cl)cc1)C(O)c1ccc(Cl)cc1 (centres undefined): inactive
Nc1cc2c3c(cccc3c1)C(=O)N(CCN1CCCC1)C2=O: inactive
CCC[CH2][Sn-]([CH2]CCC)([CH2]CCC)[O]C(=O)C(C)C: active
COc1ccc(-n2cc(-c3ccc(OC)c(OC)c3)[nH]c2=O)cc1: inactive

input: Query: recorded result category for C[C@@]1(F)[C@H](O)[C@@H](CO)O[C@H]1n1ccc(=O)[nH]c1=O in this test
output: inactive

input: Query: recorded result category for CN(C)CCC(=O)Nc1ccc(-n2cc(-c3cccc(NC(=S)Nc4cccc(-c5cn(-c6ccc(NC(=O)CCN(C)C)cc6)nn5)c4)c3)nn2)cc1 in this test
output: inactive

input: Query: recorded result category for COc1ccc2[nH]c(C(=O)N3CCN(C(=O)OCc4ccc5c(Cl)cc(Cl)c(O)c5n4)CC3)cc2c1 in this test
output: inactive

input: Query: recorded result category for O=C1c2cccc3cccc(c23)C(=O)N1CCCCCN1CCN(CCN=c2cc3n(-c4ccc(Cl)cc4)c4ccccc4nc-3cc2Nc2ccc(Cl)cc2)CC1 in this test
output: inactive

====

system: 786-0 renal; test: NCI tumour cell line growth inhibition, 48 h
Measured TGI, listed per entry.

Solved cases (3 shown):
O=S(=O)(Nc1nc2ccccc2nc1N1CCCCCC1)c1ccccc1: > 100 µM
C=C(Br)CN=CN(C)C: > 100 µM
COc1cc2c(/C=C3\C(=O)Nc4ccccc43)c[nH]c2cc1C: 12.6 µM

input: Form field - read-out: TGI; system: 786-0 renal; submitted item: COC(=O)C1C=CCC2CCCCC21N1CCCC1 (configuration not stated)
output: > 100 µM

input: Form field - read-out: TGI; system: 786-0 renal; submitted item: NC(=O)[C@H](Cc1ccc(O)cc1)Nc1c(O)c2c(c(O)c1Cl)C(=O)C=CC2=O
output: 4.62 µM

input: Form field - read-out: TGI; system: 786-0 renal; submitted item: CSC(SC)=C(C(=O)c1ccc(Cl)cc1)n1c(=O)sc2cc(Br)ccc21
output: > 100 µM

input: Form field - read-out: TGI; system: 786-0 renal; submitted item: O=CCCCCCOCc1ccccc1
output: 68.1 µM

input: Form field - read-out: TGI; system: 786-0 renal; submitted item: N#Cc1nc(CCc2nc(C#N)c(N)o2)oc1N
output: > 10 µM

input: Form field - read-out: TGI; system: 786-0 renal; submitted item: COc1cc2c[n+]3c4c(c2c(OC)c1OC)CCCC4CC3 (configuration not stated)
output: > 100 µM

input: Form field - read-out: TGI; system: 786-0 renal; submitted item: C/C(=N/NC(=S)Nc1ccccc1)c1nc2ccc(Cl)cc2[nH]1
output: 0.368 µM

input: Form field - read-out: TGI; system: 786-0 renal; submitted item: N=C1CCCC1C(=S)SCCC(N)=O (configuration not stated)
output: > 100 µM

input: Form field - read-out: TGI; system: 786-0 renal; submitted item: CC(=O)N1[C@H](C(=O)O)CS[C@H]1c1ccc(F)cc1
output: > 100 µM
